test: in vitro; details: dog
MEASURE_NAME: CC50 at 48 h (µg/mL)
Numbers only, in µg/mL.

Record Cc1cc2c(C(C)C)c(O)c(O)cc2c(O)c1-c1c(C)cc2c(C(C)C)c(O)c(O)cc2c1O [Apogossypol, apogossypol] , field CC50 at 48 h: 9.4
